# EC50 per entry
- TARGET SYSTEM: T1, monkey MSLN on HEK293T-monkey MSLN recombinant cells (monkey)
- T1 construct: Full-length precursor as transfected; processing on the cell is not described; also called HEK293-monkey MSLN
- T1 chain: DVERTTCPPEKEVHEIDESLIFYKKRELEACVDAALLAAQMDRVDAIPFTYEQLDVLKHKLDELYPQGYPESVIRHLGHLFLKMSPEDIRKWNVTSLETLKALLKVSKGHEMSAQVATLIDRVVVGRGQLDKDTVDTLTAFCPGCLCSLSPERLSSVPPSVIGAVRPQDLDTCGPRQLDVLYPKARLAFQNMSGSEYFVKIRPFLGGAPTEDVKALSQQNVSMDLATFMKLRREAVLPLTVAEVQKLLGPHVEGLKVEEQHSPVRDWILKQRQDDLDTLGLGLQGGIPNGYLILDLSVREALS
- EXPERIMENT DESCRIPTION: FACS, HEK293T-monkey MSLN cells
# number only, unit nM dropped from output

Please review the entries below; each comes with its answer.
F7.44.20-H7 (scFv, not shown: small tags and cut ends, also called S009-F7.44.20 humanized antibody VH1a + VL3) scFv: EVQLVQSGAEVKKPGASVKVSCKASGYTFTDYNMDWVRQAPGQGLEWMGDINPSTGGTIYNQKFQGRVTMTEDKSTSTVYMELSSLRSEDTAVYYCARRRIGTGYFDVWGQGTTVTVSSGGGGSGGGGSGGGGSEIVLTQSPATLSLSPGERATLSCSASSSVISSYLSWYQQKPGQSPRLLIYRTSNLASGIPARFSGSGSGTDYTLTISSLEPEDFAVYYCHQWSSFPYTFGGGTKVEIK    9.24
F7.44.20-H11 (scFv, not shown: small tags and cut ends, also called S009-F7.44.20 humanized antibody VH2 + VL3) scFv: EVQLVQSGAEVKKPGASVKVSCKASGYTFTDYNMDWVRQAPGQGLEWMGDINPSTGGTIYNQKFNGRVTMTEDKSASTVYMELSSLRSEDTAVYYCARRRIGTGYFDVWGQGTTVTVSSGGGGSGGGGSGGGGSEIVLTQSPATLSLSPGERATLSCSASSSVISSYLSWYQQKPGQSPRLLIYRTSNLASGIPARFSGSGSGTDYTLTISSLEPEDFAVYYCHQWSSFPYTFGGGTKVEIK    3.74
F7.44.20-H4 (scFv, not shown: small tags and cut ends, also called S009-F7.44.20 humanized antibody VH1 + VL4) scFv: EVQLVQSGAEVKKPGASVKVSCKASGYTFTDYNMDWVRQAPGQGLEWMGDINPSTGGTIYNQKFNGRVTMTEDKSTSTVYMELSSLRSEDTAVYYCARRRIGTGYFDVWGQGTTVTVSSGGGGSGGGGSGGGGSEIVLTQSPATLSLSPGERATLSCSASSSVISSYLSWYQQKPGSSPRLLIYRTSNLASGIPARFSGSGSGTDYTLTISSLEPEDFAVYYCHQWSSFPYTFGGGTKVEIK    10.4
F7.44.20-H9 (scFv, not shown: small tags and cut ends, also called S009-F7.44.20 humanized antibody VH2 + VL1) scFv: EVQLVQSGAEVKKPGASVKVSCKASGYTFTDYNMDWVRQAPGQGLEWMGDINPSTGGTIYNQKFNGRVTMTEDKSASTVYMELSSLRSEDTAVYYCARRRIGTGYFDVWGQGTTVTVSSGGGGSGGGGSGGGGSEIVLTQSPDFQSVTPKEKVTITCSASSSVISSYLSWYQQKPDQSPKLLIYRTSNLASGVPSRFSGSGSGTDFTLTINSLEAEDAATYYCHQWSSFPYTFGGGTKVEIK    8.05

// next item, EC50 requested
// F7.44.20-H13 (scFv, not shown: small tags and cut ends, also called S009-F7.44.20 humanized antibody VH2a + VL1) scFv: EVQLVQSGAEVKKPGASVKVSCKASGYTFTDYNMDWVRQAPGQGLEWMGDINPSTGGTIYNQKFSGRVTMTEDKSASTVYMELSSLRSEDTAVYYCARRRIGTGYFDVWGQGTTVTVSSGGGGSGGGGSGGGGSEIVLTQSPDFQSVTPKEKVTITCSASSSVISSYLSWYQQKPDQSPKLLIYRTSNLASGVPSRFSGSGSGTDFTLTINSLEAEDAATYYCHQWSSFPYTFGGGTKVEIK : EC50 value = 2.35
